# experimentDescription: protein stability index of a GFP-peptide fusion (yeast GPS) (PSI 1-4); higher = more stable; sorted into four equal gates, so the index is relative within each strain
# conditionsUsed: doa10∆
Output YES for protein stability index not less than 3; output NO otherwise.

*Q* Does protein stability index meet or surpass 3 for SFHVQKKTCSSCGYPSA [RPL37B] ?
*A* NO

*Q* Item: LYNFLHKYVLTLQLYMV [RGR1]
*A* NO

*Q* Item: QLSLDASKTNLRLTDVT [GAL11]
*A* NO

*Q* Item: EGLIIDTDKLPIKNRTS [SIN4]
*A* NO

*Q* Item: LELIGVLSINPDMYERK [MED7]
*A* NO

*Q* Item: RFYQLGVDLKLKYSKRR [CSN12]
*A* NO

*Q* Item: LSKMENVNLDDYPDDSG [NAS6]
*A* NO

*Q* Item: TFANPNRTFTDPPFRIE [TAF14]
*A* NO

*Q* Item: DHKFPIRENKVTYSRVS [BRN1]
*A* NO

*Q* Item: EEYVINLLKVSVDICNN [ECM29]
*A* NO

*Q* Item: ELALIEEAYDNPHDTLN [PRP8]
*A* YES

*Q* Item: KTHRGLRKVACIGAWHP [RPL3]
*A* NO

*Q* Item: AEKFVPIDIFQIIRRVK [SIR3]
*A* NO

*Q* Item: NIELHSLYTSREPRVVS [PUP1]
*A* NO

*Q* Item: RSLVREIAGLSPYERRL [RPL36A]
*A* NO

*Q* Item: ESAVKYALAAKDRFDID [RPN2]
*A* YES

*Q* Item: EVNSLLLQVNKTFCEDP [GRR1]
*A* YES

*Q* Item: TYNMIDAAAEKRNGDEV [ARP7]
*A* NO

*Q* Item: DSRLSRKQIDETQVLVS [BRR2]
*A* NO

*Q* Item: AKKLSSFDFGNENEDED [ARP9]
*A* YES

*Q* Item: MSLKKCQEEVSTIEKDM [SMC2]
*A* NO

*Q* Item: VSDHLDAIYRELTKNPN [SMC1]
*A* NO

*Q* Item: RAFLIEEQKIVKKVVKE [RPL34A]
*A* YES

*Q* Item: GTHNMYKEIRDVSRVAA [RPL20A]
*A* NO

*Q* Item: PKARQELPTQLALEIIV [RRP46]
*A* NO

*Q* Item: MGRMHSAGKGISSSAIP [RPS13]
*A* NO

*Q* Item: DGFKIYDNEKTAELIKE [PUP2]
*A* YES

*Q* Item: EGKKVMAPYLPGSRASS [RPN2]
*A* NO

*Q* Item: VGIDTHTATDIYQTLIA [SNF2]
*A* NO

---

# experimentDescription: protein stability index of a GFP-peptide fusion (yeast GPS) (PSI 1-4); higher = more stable; sorted into four equal gates, so the index is relative within each strain
# conditionsUsed: ubr1∆
Category key, based on recorded protein stability index: L = under 2, M = from 2 up to 3, H = 3 and over

*Q* Any idea which band AVVGNNMLLDPAANESE [RRP42] is in?
*A* M

*Q* Item: KSMITSEGEQKSAEGNN [YAR002W/NUP60]
*A* H

*Q* Item: QSYGGRPYGVGLLIIGY [PRE5]
*A* M

*Q* Item: LQQKQRDLILKKGEYAR [SMC3]
*A* M

*Q* Item: IIASASYDKTVKLWEED [YGL100W/SEH1]
*A* H

*Q* Item: PLPTPFKVDDNVDFPSA [RPN2]
*A* M

*Q* Item: PEELARILQQLKLDKII [RGR1]
*A* M

*Q* Item: EVGPWGSARTRWEMEAF [FAS2]
*A* L

*Q* Item: TLILIQNPENLLSEKIL [SIR3]
*A* H

*Q* Item: NVTSFMPFWKFFMKNFP [SRB8]
*A* L

*Q* Item: GQVVLTPLTFALPRGAR [RPL14A]
*A* L

---

# experimentDescription: protein stability index of a GFP-peptide fusion (yeast GPS) (PSI 1-4); higher = more stable; sorted into four equal gates, so the index is relative within each strain
# conditionsUsed: ubr1∆
Output Y for protein stability index not less than 3; output N otherwise.

*Q* Does protein stability index meet or surpass 3 for PSKVSKIDSHVVLSFSG [PRE6] ?
*A* N

*Q* Item: ILHGSKSQEQREHSLQL [PRP28]
*A* N

*Q* Item: AASKVKLEEESKRGNDK [RPC53]
*A* Y

*Q* Item: VTAEDFKQAKERVMKNK [RPT2]
*A* Y

*Q* Item: NKTLTLDLKECYQFAEY [ARP7]
*A* N

*Q* Item: FLHESSFDSIDHSWFLL [CSI1]
*A* N

*Q* Item: LVDLVSHFSPDIKAAVD [ITC1]
*A* N

*Q* Item: LGSSEAENLLQLKTGLA [YGL172W/NUP49]
*A* N

*Q* Item: IAPRPLDLLRPVVRAPT [RPL13A]
*A* N

*Q* Item: LAIIGDENPDLLGYTGI [PRE8]
*A* N

*Q* Item: STTQEILEFITAAQVAN [RPC34]
*A* N

*Q* Item: VGKTVKQLIMESQEKYM [NSL1]
*A* Y

*Q* Item: GAIIGWTRGTGLMSANN [FAS2]
*A* N

*Q* Item: EVSDFDEMYELTDPMTV [DIB1]
*A* N

*Q* Item: SKALYPDYYMIIKYPVA [SNF2]
*A* N

*Q* Item: RLGEMERDCVIAYGASQ [RET1]
*A* Y

*Q* Item: GVRSNHLRSNILKDLIY [SMC1]
*A* N

*Q* Item: EAEVTAEVNGGDDEATE [BRR2]
*A* N

*Q* Item: PYEMYKYVHVSEVGNCS [FAS2]
*A* N

*Q* Item: LLENFANFKTSKKYQLA [RRP6]
*A* N

*Q* Item: IIKLVEGLANDPENKVP [RPS12]
*A* N

---

# experimentDescription: protein stability index of a GFP-peptide fusion (yeast GPS) (PSI 1-4); higher = more stable; sorted into four equal gates, so the index is relative within each strain
# conditionsUsed: san1∆
recordedMetric: protein stability index

*Q* Item TIDEQSQISPEKQTPNK [RPN1] has what recorded protein stability index?
*A* 3.28

*Q* Item: ITLIDSASLHLNYGVYL [RET1]
*A* 2.83

*Q* Item: ARVKAFDRHCNMVLENV [SMD2]
*A* 1.39

*Q* Item: GALVDRTQPWSIMPDLY [RPS0A]
*A* 2.87

*Q* Item: NKDLSELVIRLEKDAAD [YIL149C/MLP2]
*A* 3.2

*Q* Item: TSLLDSLISVLEASLNS [YJL039C/NUP192]
*A* 1.87

*Q* Item: NKENDNVPSTKFNAAPE [SNF12]
*A* 3.17

*Q* Item: RSQDVRSTDRDRVKVIE [CSL4]
*A* 3.27

*Q* Item: GLMSANNIIAEGIEKMG [FAS2]
*A* 1.58

*Q* Item: GLIYSFNEENGEDSTKP [POP1]
*A* 2.86

*Q* Item: YDNGQVFPSSILDITDE [RPP0]
*A* 2.42

*Q* Item: FVYNKVNETEAILYTKP [YGR119C/NUP57]
*A* 2.74

*Q* Item: DSLASELTLAEQQVKEA [SMC4]
*A* 3.23

*Q* Item: LKYLSVEEVIKLVRDSF [PRE7]
*A* 2.72

*Q* Item: FSQKEMAFNLLGLLTPE [FAS2]
*A* 2.18

*Q* Item: VEEYTWSSLLNEGLVEY [RPB2]
*A* 3.11

*Q* Item: INSGLYSVLLESPLSVA [YML103C/NUP188]
*A* 1.15

*Q* Item: SKALYPDYYMIIKYPVA [SNF2]
*A* 2.02

*Q* Item: LESWWLVLGEVSKKELY [BRR2]
*A* 1.11

*Q* Item: YWSDKKADTDTLLYEQI [SNF5]
*A* 2.64

*Q* Item: FPRDGKAPEAEQVLSAA [RPL13B]
*A* 2.9

*Q* Item: EDPVTVEYLTRYVAGVQ [PRE6]
*A* 2.54

*Q* Item: NSNTNLNSLSPQAILAK [SWI1]
*A* 1.92

*Q* Item: KIIELMNKIFTIFKSGE [YML103C/NUP188]
*A* 1.79

*Q* Item: KFNAAPEENATEGPSDK [SNF12]
*A* 3.26

*Q* Item: AYLLLVQGGNAAPSAAD [RPP2B]
*A* 1.96

*Q* Item: VAIACDLRLGSQSLGVS [PUP3]
*A* 2.85

*Q* Item: QQQNASSKLYQMQQQQQ [GAL11]
*A* 1.5

*Q* Item: LDLLRPVVRAPTVKYNR [RPL13A]
*A* 1.7

*Q* Item: MEMSEKIQFILEQMELS [RPN5]
*A* 2.35

*Q* Item: PKMKDEEYDDDDDNSNV [SNF2]
*A* 3.23

*Q* Item: RFKYAPGTIVLYAERVQ [RPS3]
*A* 1.56

*Q* Item: HLAICLDIINPGSVEEV [YDL116W/NUP84]
*A* 2.46

*Q* Item: HMISQEGIKETQAKRIF [SWI1]
*A* 3.19

*Q* Item: SAGKGISSSAIPYSRNA [RPS13]
*A* 2.36

*Q* Item: LKNKREIYRISFQLSKI [RPS9B]
*A* 3.54

*Q* Item: RIMSRNFYLKRFISDLL [SWI1]
*A* 2.08

*Q* Item: RHGSVVEASRRRRSSTN [MED1]
*A* 3.26

*Q* Item: YSIPHPSENLLNIRIQT [RPC19]
*A* 2.65

*Q* Item: SFHVQKKTCSSCGYPSA [RPL37B]
*A* 1.86

*Q* Item: RQKNVIHRAARPTRPDK [RPL15A]
*A* 3.27

*Q* Item: AHRGIRHFWGLRVRGQH [RPS18A]
*A* 2.44

*Q* Item: SSLVRRNSVKLLSKLLL [YCS4]
*A* 1.64

*Q* Item: SASHFEQYTKKINSWDQ [YJL041W/NSP1]
*A* 2.69

*Q* Item: IPVIALTDLDSPSEFVD [RPS0A]
*A* 2.74

*Q* Item: ANDEEAYIKLLDQTKDT [SNF2]
*A* 3.4

*Q* Item: ASKKSGGDVVKFQKLLQ [SMC4]
*A* 3.19

*Q* Item: YENKDNLTAGIIVAGYD [PRE3]
*A* 2.98

*Q* Item: VGEMKLLKKKDDPSKVR [YLR335W/NUP2]
*A* 2.98

*Q* Item: EEYVINLLKVSVDICNN [ECM29]
*A* 2.7

*Q* Item: DVSRVAAVETLYQDMAA [RPL20A]
*A* 2.37

*Q* Item: DEDDDLDEDDVNADDDD [RPB4]
*A* 2.09

*Q* Item: SKSMKFSRRFDCRDVYC [CSN9]
*A* 2.58

*Q* Item: LLTAKHGMTLRESFEDN [RPO21]
*A* 2.6

*Q* Item: NAAPANVTGGKAANFIQ [SWI1]
*A* 2.48

*Q* Item: VSKMEKAEKTLKSTKHS [SMC4]
*A* 2.33

*Q* Item: TAPSSQRRVLLSAPLSK [RPL26A]
*A* 2.31

*Q* Item: GKEHIVAALVSLTEKFS [ECM29]
*A* 1.58

*Q* Item: KKYTQNNPLLLIVDVKQ [RPN8]
*A* 1.06

*Q* Item: NYASVYPVVEVERGRVG [RRP43]
*A* 3.43
